Each item that follows carries a reported inhibition.
assay: blockers of RIG-like receptor reporter activation – cell-based, Sendai virus stimulus, luciferase, 10K MLSCN set, TLR/RLR signaling modifier project, primary screen (AID 602276); settings: HEK293 RL24 IRF3 luciferase reporter, at 10 µM, stronger effect = higher value;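 note: firefly luciferase from ISG56 promoter only with Renilla not read in this screen; 0% = Sendai virus plus DMSO and 100% = medium plus DMSO without virus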
Enter your answer as a number in %; do not include the unit.

// worked examples, inhibition included
C=CCn1c(Cc2cccs2)nnc1SCC(=O)Nc1ccc(OC)c(OC)c1 = 13.5
O=C(Nc1ccc2oc(-c3ccncc3)nc2c1)c1cccs1 = -55.9
Cc1cc(NCCN(C)C)n2nc(-c3cccs3)cc2n1 = -3.67
Cc1ccc(Nc2cc(C)nc3ncnn23)c(Cl)c1 = 6.25
CCN1CCN(CCNC(=O)c2cn(C(C)c3ccccc3F)nn2)CC1 (stereo unspecified) = 12

Documented inhibition of "COc1ccc(NCc2nnc(SCC(=O)Nc3cc(C)cc(C)c3)o2)cc1" : 11

GET /value?item= "CCOC(=O)c1cc2sccc2n1CC(=O)Nc1ccc2c(c1)OCCO2" &field=inhibition returns -5.94

Entry "COc1ccc(CCNc2oc(-c3ccccc3OC)nc2C#N)cc1" , inhibition reported as -0.337

---

test: reduction of polyQ htt aggregates in cells – imaging, exon1htt(103Q)mCFP cells, high-content imaging, primary screen (AID 483); conditions: exon1htt(103Q)mCFP cell line, aggregate imaging, at 2 µM; stronger effect = higher value;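 note: compound exposure lasted 3 days before fixation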
ENDPOINT_NAME: inhibition of aggregation (%)
Your answer is read as %, so omit the unit and give the number.

Consider the reported inhibition of aggregation for these compounds:
CCC(=O)N1CCc2cc(Br)cc(S(=O)(=O)C3(C(=O)OC)CC3)c21 = -5.1
CC(=O)Nc1ccccc1OCc1nnc(-c2cccs2)o1 = -8.8

inhibition of aggregation reported for this compound "CCOC(=O)c1[nH]c(C)c(C(=O)Nc2ccc(C)cc2C)c1C" : 20.1

In plain terms, COc1ccc(N2C(=O)C3C4C=CC(C4)C3C2=O)nn1 (stereo unspecified) has a documented inhibition of aggregation of -9.5

inhibition of aggregation reported for this compound "CC(=O)Nc1c(O)[nH]c2ccccc12" : -9.8

// field: inhibition of aggregation; key: O=S1(=O)CCC(N=Cc2cc(Br)ccc2O)C1 (stereo unspecified) ; value = 32.5

---

experiment: inhibitors of larval lipid processing in zebrafish, primary screen, whole organism, PED6 fluorescence, gall bladder and intestine (AID 686); conditions: Zebrafish larvae PED6 lipid processing, fluorescence scoring; screened at 20 µM (by protocol);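 note: larvae 5 to 7 days old with five fish per well; signal comes from phospholipase A2 cleavage of quenched PED6 carried via bile; overnight exposure to compound and PED6 before scoring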
Activity calls are given as the source filed them.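 The calls were made as follows: active = a full or partial loss of lipid-probe fluorescence in the fish gall bladder, intestine or both, judged by eye; inactive = no fluorescence loss, or compound toxic to the fish.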
ENDPOINT_NAME: outcome

// below: answered molecules
O=C(CSc1ccccc1C(=O)NCCCN1CCCC1=O)NCc1ccco1 = inactive
CCOC(=O)/C=C1\SCC(=O)N1Cc1nnc(-c2ccccc2Br)o1 = inactive
COC(=O)c1[nH]c2ccc(C)cc2c1NC(=O)CN1CCCC(C)(C)C1 = inactive
O=C(Nc1cc(C(=O)N2CCCC2)ccc1N1CCCC1)c1ccccc1F = inactive
O=C(Nc1ccc(NC(=O)C2CC2)cn1)c1ccccc1Cl = inactive

Okay, next one:
Entry under test: "COC(=O)Nc1sccc1C(=O)Nc1sccc1C(=O)OC" . Its outcome was inactive

---

target: Voltage-gated potassium channel subunit beta-2 (Rattus norvegicus); experiment: inhibitors of rat Kvbeta2 reductase activity – biochemical, NADPH fluorescence, primary screen (AID 622); conditions: recombinant KvBeta, 4-cyanobenzaldehyde reduction, at 10 µM, stronger effect = higher value;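 note: slope of raw intensity against log time taken from 70 to 1610 s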
// not satisfied strictly below -0.5 in fluorescence slope; satisfied otherwise

Field: example entries. Status: answers known.
Cc1cccc(C)c1NC(=O)c1cc(S(=O)(=O)N2CCOCC2)ccc1F = satisfied
CCCc1cc(-c2n[nH]c(C)c2-c2ccc(C(=O)OCC)o2)c(O)cc1O = not satisfied
Cc1csc(NC(=O)CCS(=O)(=O)c2ccc(Br)cc2)n1 = not satisfied

Q) Tell me whether fluorescence slope is at least -0.5 here: "CSc1cccc(NC(=O)CN(C)S(=O)(=O)c2ccccc2)c1"
A) satisfied

Q) Decide: fluorescence slope of "c1ccc2c(-c3nc(-c4ccncc4)no3)cccc2c1" >= -0.5?
A) satisfied

Q) Form field: fluorescence slope at least -0.5? Entry: "Cc1cc(C(=O)COc2cccc3cccnc23)c(C)n1C"
A) satisfied

Q) Please indicate if the recorded fluorescence slope for "Cc1cccc(C)c1NC(=O)COC(=O)c1nonc1N" meets or exceeds -0.5.
A) satisfied

Q) Could you tell me if the measured fluorescence slope of COc1ccc(C2CC(=O)c3c(C)nc(N4CCN(c5ccccc5)CC4)nc3C2)cc1 (centres undefined) reaches -0.5 or more?
A) not satisfied

Q) # bool: fluorescence slope of "CCN1C(=O)/C(=C2\C=Cc3ccccc3N2CC)OC1=S" >= -0.5
A) satisfied

---

assay: reduction of polyQ htt aggregates in cells – imaging, exon1htt(103Q)mCFP cells, high-content imaging, primary screen (AID 483); conditions: exon1htt(103Q)mCFP cell line, aggregate imaging, at 2 µM; measured here: cell count, toxicity;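 note: compound exposure lasted 3 days before fixation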;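 for nuclei count: percent of the per-plate median nuclei count of sample wells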
Recorded measurements of nuclei count, one per entry
Number only, in %; omit the unit.

COc1cc(Nc2cc(C)nc3ncnn23)cc(OC)c1OC = 109
COc1ccc(S(=O)(=O)Cc2ccc(C(=O)N3CCN(Cc4ccccc4)CC3)o2)cc1 = 98.6
O=C(CSc1nc2ccccc2[nH]1)c1ccc2c(c1)OCO2 = 102
CCC(=O)N1CCN(c2nc(-c3ccccc3)c3c(c2C#N)CCCC3)CC1 = 98.3

Please fill in: nuclei count reported for CC(C)OC(=O)c1cc(NC(=O)C2C3CCC(O3)C2C(=O)O)cc(C(=O)OC(C)C)c1 (configuration not stated) = 108

Notebook: "Cc1c(Cl)cccc1NC(=O)CCN1CCCCCC1" , nuclei count read as 90.4

Note to self: nuclei count recorded for "Cc1onc(-c2ccccc2)c1C(=O)N1CCOCC1" was 113

Looking up "COc1ccccc1NC(=O)NC(N)=O" , I see its nuclei count listed as 104

---

Here, each record is paired with measured inhibition data.
experiment: TLR3 IRF3 reporter activation blockers – cell-based, poly I:C stimulus, luciferase, 10K MLSCN set, primary screen (AID 602277); conditions: HEK293-TLR3 RL24 IRF3 luciferase reporter, at 10 µM, stronger effect = higher value
Number in %, nothing else.

CN1CCN(c2ncnc3c2cnn3-c2ccc(Cl)cc2)CC1 = 6.85
CCN(CC)C(=O)C1CCN(CC2CC=CCC2)CC1 (configuration not stated) = 9.42
COc1ccc(CSCCN)cc1Cl = -8.95
Cc1noc(/C=C/N(C)C)c1S(=O)(=O)N1CCCC(C(=O)N2CCCCC2)C1 (configuration not stated) = 28.7

"COc1ccccc1N1CCN(C(=O)C2CCN(S(=O)(=O)c3ccc(F)cc3)CC2)CC1" has a reported inhibition of -9.69

Briefly, inhibition measured for "CCCCOc1ccc(-c2ncc(C(=O)OCC)c(N)n2)cc1" : -34.4

The recorded inhibition for entry "COc1ccc(OC)c(C(=O)CSc2nc3ncccc3[nH]2)c1" equals -19.6

The compound listed as CCOC(=O)C(NC(=O)CC)(Nc1ccc(S(=O)(=O)Nc2onc(C)c2C)cc1)C(F)(F)F (configuration not stated) has a reported inhibition of 14.1

In plain terms, "CC(=O)Nc1c(O)n(C)c2ccccc12" has a documented inhibition of 2.01

Please fill in: inhibition reported for "O=C(NCCCN1CCN(c2cccc(Cl)c2)CC1)c1ccc(N2CCCC2=O)cc1" = 0.162

Entry O=P(O)(O)C(O)C(F)(F)C(F)(F)C(F)(F)C(F)F (configuration not stated) — recorded inhibition = 17.5

Consider "CCCC(=O)Nc1ccc(NC(=O)C2CC2)cn1" . Its measured inhibition is -13.6

The recorded inhibition for entry "CCN1C(=C2C(=O)c3ccccc3C2=O)C=Cc2ccccc21" equals -27.9

response.value for "O=C(CN(Cc1ccc(F)cc1)C(=O)c1ccco1)NCc1ccc(F)cc1" (field: inhibition) = 21.2

Reported inhibition for "Cn1c(CSc2nc3ccccc3s2)nnc1SCC(=O)NCCN1CCOCC1" was 13.9

The compound identified as O=C(CC1(O)C(=O)Nc2ccccc21)c1ccc2c(c1)OCO2 (configuration not stated) registered its inhibition at 35.2

Please fill in: inhibition reported for "Cc1cc(C)n2nc(SCC(=O)N(C)c3ccccc3)nc2n1" = 24.1

The reported value for C=CCNC(=O)C1CC(=O)N(c2ccc(OCC(=O)Nc3ccc(OC)cc3)cc2)C1 (configuration not stated) in terms of inhibition is 5.9

get_value(item= COCCN1C(=O)c2oc3c(C)cc(C)cc3c(=O)c2C1c1cccc(O)c1 (configuration not stated) , readout=inhibition) returns -1.3

Reported inhibition ( CC1(C)OC(=O)N(c2cccnc2)C1(C)O (configuration not stated) ) = 19.9

Reported inhibition for "c1ccc(-c2nc3nonc3c3nc4ccccc4n23)cc1" was -7.48

# inhibition of "CC1(C)CC(=O)C=C(NCCN2CCN(C(=O)Nc3ccccc3)CC2)C1" = -0.835

Notebook: "COCCCNC(=O)c1ccc(CS(=O)(=O)c2ccc(OC)cc2)o1" , inhibition read as 13.8

inhibition for CCC1(C)Cc2c(C#N)c(N)n(-c3ccccc3)c(=O)c2CO1 (configuration not stated) is 5.33

Recorded inhibition (compound "CC(=O)CCc1ccc(OCCCCn2cncn2)cc1" ): -5.67

Per the records, this compound ( Cc1ccc(S(=O)(=O)N2CCN(C(=O)CN3CCOCC3)C2C(C)C)cc1 (configuration not stated) ) has inhibition equal to 12.9
